system: PC-3 prostate; assay: NCI-60 one-dose screen, 48 h; details: 10 µM
About 83,000 compounds went through this panel and 20% of them were active in at least one assay; those are over-represented in the sample as a whole. Active and inactive are the calls of the source. The calls were made as follows: active = growth percent below 10; inactive = the rest.
Outcome codes: Y (active), N (inactive)

COMPOUND	TARGET_OR_SYSTEM	CLASS
CCOC(=O)C1=CSC2=NC3=C(CCC/C3=C\c3ccc(Cl)cc3)C(c3ccc(Cl)cc3)N12 (centres undefined)	PC-3 prostate	N
COc1cccc(-c2nc3sccn3c2-c2cccc(S(C)(=O)=O)c2)c1	PC-3 prostate	N
C=CCNCCN1C(=O)c2ccc3c4c(ccc(c24)C1=O)C(=O)N(CCNCC=C)C3=O	PC-3 prostate	Y
Nc1ncnc2c1ncn2C1(CO)OCC(O)C(O)C1O (centres undefined)	PC-3 prostate	N
Nc1ccc(CC[C@H]2CCC/C=C/[C@@H]3C[C@H](O)C[C@H]3[C@H](O)/C=C/C(=O)O2)cc1	PC-3 prostate	N
O=C1/C=C/[C@@H](O)[C@@H]2C[C@@H](O)C[C@H]2/C=C/CCC[C@H](CCc2ccc(NC(=S)Nc3ccc4c(c3)C(=O)OC43c4ccc(O)cc4Oc4cc(O)ccc43)cc2)O1	PC-3 prostate	N
Cc1ccc(S(=O)(=O)N/N=C2\CCCc3ccccc32)cc1	PC-3 prostate	N
CCOC(=O)c1cc(C(=O)c2cc(OC)c(OC)c(OC)c2)n2ccc(-c3cc[n+](CC(=O)c4cc(OC)c(OC)c(OC)c4)cc3)cc12	PC-3 prostate	N
CCCCCOC(=O)Nc1nc(=O)n(C2O[C@H](C)[C@@H](O)[C@H]2O)cc1F (some centres undefined)	PC-3 prostate	N
CCOC(=O)N/N=C/c1ccc(OC)c(OC)c1	PC-3 prostate	N
COc1ccc(C(=O)N/N=C/c2cc(C(F)(F)F)ccc2Cl)cc1	PC-3 prostate	N
COc1ccc(-c2nnc(SCC(=O)Nc3ccc(C(=O)/C=C/c4ccccc4)cc3)n2-c2ccccc2)cc1OC	PC-3 prostate	N
COc1ccc(C(=O)COc2cccc(/C=C3\Cc4ccccc4C3=O)c2)cc1	PC-3 prostate	N
O=C1c2c(c(=O)[nH]c3ccccc23)CCN1Cc1ccccc1	PC-3 prostate	N
O=[N+]([O-])c1cccc(/C=N/NC(=S)NC23CC4CC(CC(C4)C2)C3)c1	PC-3 prostate	N
COc1ccc(/C(C#N)=C/c2cccc(OC)c2OC)cc1	PC-3 prostate	N
CCN(CC)CCCC(Nc1c2ccc(Cl)cc2nc2ccc(OC)cc12)c1ccc(F)cc1 (centres undefined)	PC-3 prostate	N
CC(C)(C)OC(=O)N1CCc2c(sc3ncnc(N/N=C/c4cccc5ccccc45)c23)C1	PC-3 prostate	N
C[C@@H](O)[C@H]1C(=O)N2C(C(=O)O)=C(SCCN=CN)C[C@H]12	PC-3 prostate	Y

###

# maps each entry to its growth
system: SF-295 CNS; assay: NCI-60 one-dose screen, 48 h (100 = growth as untreated, 0 = no growth, -100 = all killed); conditions: 10 µM
About 83,000 compounds went through this panel and 20% of them were active in at least one assay; those are over-represented in the sample as a whole.
QUANTITY_NAME: growth (%)

MOLECULE	QUANTITY_NAME	NUMBER
C/C(=C/CCC(C)[C@@H]1CC[C@]2(C)C3=C(CC[C@@]12C)[C@@]1(C)CCC(=O)C(C)(C)[C@@H]1CC3)C(=O)O (stereo not given in full)	growth	-90.5
O=C1/C(=C/c2ccc([N+](=O)[O-])s2)Oc2cc(Cl)ccc21	growth	52.1
Cc1ccc(-n2c(C)nn3c(=O)c4c5c(sc4nc23)CN(C)CC5)cc1	growth	98.1
CCN1CC(CCN2CCOCC2)C(C(c2ccccc2)c2ccccc2)C1=O (stereo not given)	growth	89.9
Clc1ccc(Cc2ccncc2)cc1	growth	112
CCCc1cn(CC(=O)Nc2nc3ccccc3s2)nn1	growth	104
O=C(CSc1nnc(-c2ccc(Cl)cc2)o1)Nc1ccc(C(=O)/C=C/c2ccc(Cl)cc2)cc1	growth	101
Oc1cccc(-c2nc3sccn3c2-c2ccncn2)c1	growth	101
S=C(NCc1ccccc1)NCc1ccccc1	growth	95.8
CCOC(=O)/C(=C(\C)N)C1CC(=O)NC1=O (stereo not given)	growth	101
CN(C)c1ccc(/C=N/NC(=O)c2cccc3ccccc23)c(Cl)c1	growth	19.1
N#Cc1ccc(C(=O)CSc2nccc(Nc3ccc(C(=O)O)cc3)n2)cc1	growth	97.4
COc1ccc(C(c2ccc(OCCN(C)C)cc2)c2cc3ccccc3c3ccccc23)cc1 (stereo not given)	growth	58
COc1ccc2c(c1)C(=O)/C(=C/c1cccc(OCC(=O)c3ccc([N+](=O)[O-])cc3)c1)CO2	growth	43.3
C[C@]12CC[C@@H]3c4ccc(O)cc4CC[C@H]3[C@@H]1CC[C@@H]2NS(=O)(=O)c1ccc(C(F)(F)F)cc1	growth	30.9
COc1cc(C(=O)N2CCN(c3cc4c(cc3F)c(=O)c(C(=O)NO)cn4C3CC3)CC2)cc(OC)c1OC	growth	103
CC(C)(C)OC(=O)N1CCc2c(sc3ncnc(N/N=C/c4ccccc4Br)c23)C1	growth	89.5
COc1cc2c(cc1NC(=O)C(F)(F)F)-c1ccc(NC(=O)C(F)(F)F)cc1C2	growth	83.4
NC(CSC(c1ccccc1)(c1ccccc1)c1cccc2ccccc12)C(=O)O (stereo not given)	growth	91.1
CCNc1nc(C(F)(F)F)nc2c1sc(=S)n2-c1ccccc1	growth	94
CCN(CC)CCNc1ccc(C)c2sc3cc(Cl)ccc3c(=O)c12	growth	70
C=C/C(C)=C/C[C@]1(C)[C@H](C)[C@@H](OC(=O)CCC)[C@H](O)[C@@]23C(=C[C@H](OC)C[C@@H]12)[C@@H](OC(=O)CCC)O[C@H]3OC(C)=O	growth	-59.6
O=C(N/N=C/c1ccc(Cl)cc1)c1ccc(Cc2n[nH]c(=O)c3cccnc23)cc1	growth	101
Cc1ccc(N=Nc2ccccc2)cc1	growth	90.3
O=C1c2c(c3c4ccccc4n(CCCCCCN4CCOCC4)c3c3[nH]c4ccccc4c23)C(=O)N1O	growth	108
O=C(CCl)Nc1ccc(Cc2ccc(NC(=O)CCl)cc2)cc1	growth	70.1
N#Cc1c(-c2ccc(Cl)cc2)cc(-c2cc(O)ccc2O)nc1N	growth	75.6
CCN1CCN(CCC(=O)Nc2cccc(-n3cc(-c4ccncc4)c(-c4ccc(Cl)c(OC)c4)n3)c2)CC1	growth	9.42
O=C1c2ccccc2C(=O)c2c1ccc1c(=O)n(-c3ccccc3C(F)(F)F)nnc21	growth	52.5
CC(C)(C)OC(=O)CN1CCc2c(sc3ncnc(N/N=C/c4cccc5ccccc45)c23)C1	growth	51.5
NS(=O)(=O)Oc1ccc(NC(=O)C2CCCCCC2)cc1	growth	99
c1ccc(CCCCc2ccc3ccccc3n2)cc1	growth	106
COc1ccc(-c2nn(-c3cccc(Cl)c3)cc2-c2c(C#N)c(=O)n3[nH]c(-c4ccc(C)cc4)nc3c2C#N)cc1	growth	23.6
COc1ccc(-c2n[nH]nc2-c2cc(OC)c(OC)c(OC)c2)cc1	growth	13.7
O=C(NCCNC(=O)c1ccc(F)cc1)Nc1ccc(-n2cc(-c3ccncc3)c(-c3ccc(Cl)c(O)c3)n2)cc1	growth	-59.1
COc1cccc(CNc2cccc3cn[nH]c23)c1O	growth	108
Cc1ccc(NCCN(C)CC(C)O)c2c(=O)c3ccccc3sc12 (stereo not given)	growth	53.3
C[C@@H](O)[C@H]1C(=O)N2C(C(=O)O)=C(SCCN=CN)C[C@H]12	growth	-5.26
CC(=O)OC/C=C(/C)C[P+](c1ccccc1)(c1ccccc1)c1ccccc1	growth	41.6
COc1ccc(C2CC(c3cc(OC)c(OC)c(OC)c3)=NN2)cc1 (stereo not given)	growth	48.1

###

tested on: SK-MEL-5 melanoma; assay: NCI-60 one-dose screen, 48 h (100 = growth as untreated, 0 = no growth, -100 = all killed); conditions: 10 µM
About 83,000 compounds went through this panel and 20% of them were active in at least one assay; those are over-represented in the sample as a whole.
Rule: growth under -80% gives F, otherwise T.

COMPOUND	TARGET_OR_SYSTEM	CLASS
O=S(=O)(Oc1ccc(-c2ccc3sccc3c2)cc1)c1ccc(F)cc1	SK-MEL-5 melanoma	T
CC(C)N(CCOc1ccc(-c2nc3sccn3c2-c2ccnc(S(C)(=O)=O)n2)cc1)C(C)C	SK-MEL-5 melanoma	T
C=C/C(C)=C/C[C@]1(C)[C@H](C)[C@@H](OC(=O)CCC)[C@H](O)[C@@]23C(=C[C@H](OC)C[C@@H]12)[C@@H](OC(=O)CCC)O[C@H]3OC(C)=O	SK-MEL-5 melanoma	F
CN(C)CCOc1cccc(-c2nc3sccn3c2-c2ccnc(S(C)(=O)=O)n2)c1	SK-MEL-5 melanoma	T
Brc1ccc2c(c1)-c1ccccc1C1=NCCN12	SK-MEL-5 melanoma	T
COc1ccc(/C(=N\N)C(=O)c2ccccc2)cc1 (tested in a mixture with another compound)	SK-MEL-5 melanoma	T
COc1ccc2c(c1)C(=O)/C(=C/c1ccc([N+](=O)[O-])o1)O2	SK-MEL-5 melanoma	F
CCN(CC)CCCC(C)N=C(C1=C(C(=NC(C)CCCN(CC)CC)c2cccc(OC)c2)C(=O)NC1=O)c1cccc(OC)c1 (centres undefined)	SK-MEL-5 melanoma	F
CN(C)CCOc1ccccc1NC1=C(Cl)C(=O)C(Nc2ccccc2OCCN(C)C)=C(Cl)C1=O	SK-MEL-5 melanoma	T

From: PubChem BioAssay (NCI)
